# assayTarget: rM1 Y381A (Rattus norvegicus, UniProt P08482, Y381A)
# Sequence (P08482 whole entry Y381A): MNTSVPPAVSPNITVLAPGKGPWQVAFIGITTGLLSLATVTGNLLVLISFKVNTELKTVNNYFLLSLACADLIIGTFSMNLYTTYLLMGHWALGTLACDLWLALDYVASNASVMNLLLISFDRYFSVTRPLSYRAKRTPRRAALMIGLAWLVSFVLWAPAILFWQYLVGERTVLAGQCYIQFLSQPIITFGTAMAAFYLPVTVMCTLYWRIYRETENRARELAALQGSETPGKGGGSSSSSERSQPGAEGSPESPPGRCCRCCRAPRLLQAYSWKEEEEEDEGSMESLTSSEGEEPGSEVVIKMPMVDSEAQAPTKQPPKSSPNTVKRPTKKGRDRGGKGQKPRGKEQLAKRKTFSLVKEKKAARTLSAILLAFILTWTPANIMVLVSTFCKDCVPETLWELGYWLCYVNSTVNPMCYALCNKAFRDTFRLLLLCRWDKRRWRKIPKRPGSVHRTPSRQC
# testMethodNotes: Calcium mobilization in rM1 Y381A
# Assay type: cell-based
quantityKind: EC50 (nM)

>>> value("CCOC(=O)N1CCC(NCCNC(=O)c2ccccc2)CC1")
304

====

# assayTarget: hM2 (Homo sapiens, UniProt P08172)
# Sequence (P08172 whole entry): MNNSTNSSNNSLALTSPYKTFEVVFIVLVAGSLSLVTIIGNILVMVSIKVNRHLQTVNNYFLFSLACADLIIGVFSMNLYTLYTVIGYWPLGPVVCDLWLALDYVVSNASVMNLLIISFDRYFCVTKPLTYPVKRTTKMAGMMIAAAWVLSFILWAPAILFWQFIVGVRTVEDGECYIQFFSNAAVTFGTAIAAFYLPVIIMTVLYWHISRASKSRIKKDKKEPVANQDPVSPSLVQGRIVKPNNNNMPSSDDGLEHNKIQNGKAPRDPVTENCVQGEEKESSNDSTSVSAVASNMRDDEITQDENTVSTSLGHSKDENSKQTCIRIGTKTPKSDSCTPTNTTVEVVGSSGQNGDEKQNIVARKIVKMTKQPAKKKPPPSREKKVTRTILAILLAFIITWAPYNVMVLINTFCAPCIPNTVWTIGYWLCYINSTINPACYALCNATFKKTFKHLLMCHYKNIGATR
# testMethodNotes: Calcium mobilization assay, agonist mode, M2
# Assay type: cell-based
# recordedConditions: up to 30 μM
quantityKind: agonist activity at M2

>>> value("CCOC(=O)N1CCC(NCCNC(=O)c2ccccc2)CC1")
"no activity"
>>> value("CCOC(=O)N1CCC(NCCNC(=O)c2ccccc2C)CC1")
"no activity"

====

# assayTarget: hM3 (Homo sapiens)
# Sequence (P20309 whole entry): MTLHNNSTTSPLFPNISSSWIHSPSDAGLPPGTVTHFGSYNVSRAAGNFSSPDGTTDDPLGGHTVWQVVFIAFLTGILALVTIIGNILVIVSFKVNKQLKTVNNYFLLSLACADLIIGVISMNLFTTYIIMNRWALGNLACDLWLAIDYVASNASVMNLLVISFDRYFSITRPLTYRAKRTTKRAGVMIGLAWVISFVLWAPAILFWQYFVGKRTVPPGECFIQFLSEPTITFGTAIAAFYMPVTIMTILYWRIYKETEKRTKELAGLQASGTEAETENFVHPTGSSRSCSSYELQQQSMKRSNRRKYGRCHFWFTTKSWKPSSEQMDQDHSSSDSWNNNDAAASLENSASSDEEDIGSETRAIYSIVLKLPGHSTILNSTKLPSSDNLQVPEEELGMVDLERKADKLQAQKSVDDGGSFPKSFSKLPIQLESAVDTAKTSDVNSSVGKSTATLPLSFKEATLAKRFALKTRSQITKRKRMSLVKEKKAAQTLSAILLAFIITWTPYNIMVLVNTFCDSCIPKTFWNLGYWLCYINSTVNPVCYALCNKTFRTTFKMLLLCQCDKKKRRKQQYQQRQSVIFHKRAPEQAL
# testMethodNotes: Calcium mobilization assay, agonist mode, M3
# Format: cell-based
# recordedConditions: up to 30 μM
quantityKind: agonist activity at M3

>>> value("CCOC(=O)N1CCC(NCCNC(=O)c2ccccc2)CC1")
"no activity"
>>> value("CCOC(=O)N1CCC(NCCNC(=O)c2ccccc2C)CC1")
"no activity"

====

# testMethodNotes: Plasma-brain exposure profile PK study
# Format: in vivo
# recordedConditions: male, Sprague-Dawley, rat, brain and plasma, ip, 10 mg/kg
quantityKind: Kp

>>> value("CCOC(=O)N1CCC(NCCNC(=O)c2ccccc2C)CC1")
1.46

====

# assayTarget: rM4 (Rattus norvegicus, UniProt P08485)
# Sequence (P08485 whole entry): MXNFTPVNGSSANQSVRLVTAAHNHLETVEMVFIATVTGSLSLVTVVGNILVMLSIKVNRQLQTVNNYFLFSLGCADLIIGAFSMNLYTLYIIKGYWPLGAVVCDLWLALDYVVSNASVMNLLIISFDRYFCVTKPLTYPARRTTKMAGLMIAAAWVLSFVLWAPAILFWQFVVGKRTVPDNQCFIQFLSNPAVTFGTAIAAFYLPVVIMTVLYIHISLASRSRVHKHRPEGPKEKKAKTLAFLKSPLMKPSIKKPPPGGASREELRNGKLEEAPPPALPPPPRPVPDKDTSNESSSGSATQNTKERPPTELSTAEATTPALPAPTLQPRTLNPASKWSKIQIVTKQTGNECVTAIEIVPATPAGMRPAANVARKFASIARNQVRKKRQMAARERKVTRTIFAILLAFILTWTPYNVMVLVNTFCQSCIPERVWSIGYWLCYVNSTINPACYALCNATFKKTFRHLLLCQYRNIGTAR
# testMethodNotes: Calcium mobilization assay, agonist mode, M4
# Assay type: cell-based
# recordedConditions: up to 30 μM
quantityKind: agonist activity at M4

>>> value("CCOC(=O)N1CCC(NCCNC(=O)c2ccccc2C)CC1")
"no activity"
>>> value("CCOC(=O)N1CCC(NCCNC(=O)c2ccccc2)CC1")
"no activity"

====

# assayTarget: UniProt:P08482
# testMethodNotes: Calcium mobilization assay, CHO-K1 cells stably expressing rM1
# Type: cell-based
pEC50: −log10 of the molar value.
quantityKind: pEC50

>>> value("CCOC(=O)N1CCC(NCCNC(=O)c2ccccc2)CC1 [VU0184670]")
6.82

====

# assayTarget: M5 (Homo sapiens, UniProt P08912)
# Sequence (P08912 1-532): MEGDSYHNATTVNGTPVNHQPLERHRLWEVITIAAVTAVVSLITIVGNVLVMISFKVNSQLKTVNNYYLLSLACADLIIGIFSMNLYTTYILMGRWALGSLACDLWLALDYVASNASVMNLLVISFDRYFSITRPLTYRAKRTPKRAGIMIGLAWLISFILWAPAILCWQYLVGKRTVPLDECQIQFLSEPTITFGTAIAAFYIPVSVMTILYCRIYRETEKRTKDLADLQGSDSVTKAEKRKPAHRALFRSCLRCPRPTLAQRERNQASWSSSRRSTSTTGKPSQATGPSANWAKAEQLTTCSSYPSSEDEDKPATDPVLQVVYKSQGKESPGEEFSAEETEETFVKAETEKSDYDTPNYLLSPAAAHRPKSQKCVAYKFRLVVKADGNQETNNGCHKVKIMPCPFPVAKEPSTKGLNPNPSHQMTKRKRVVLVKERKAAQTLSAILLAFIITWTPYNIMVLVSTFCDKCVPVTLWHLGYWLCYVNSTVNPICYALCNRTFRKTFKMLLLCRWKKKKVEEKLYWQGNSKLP
# testMethodNotes: Antagonism of EC80 ACh response, calcium mobilization, M5
# recordedConditions: read-out: M5 antagonism IC50; attenuation of EC80 ACh response
pIC50: −log10 of the molar value.
quantityKind: pIC50

>>> value("Cc1ccccc1CN1CCC(N2CCC(n3c(=O)[nH]c4ccccc43)CC2)CC1")
5.00
